Target: Cathepsin K (Homo sapiens, UniProt P43235)
Sequence (P43235 115-329, species assumed): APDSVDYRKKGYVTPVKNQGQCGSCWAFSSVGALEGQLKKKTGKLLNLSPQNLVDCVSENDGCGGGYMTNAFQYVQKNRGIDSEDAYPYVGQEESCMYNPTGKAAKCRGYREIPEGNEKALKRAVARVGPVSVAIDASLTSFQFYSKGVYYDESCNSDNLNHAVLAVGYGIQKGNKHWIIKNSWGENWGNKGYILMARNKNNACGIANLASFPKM
Test: Cathepsin K inhibition assay (fluorogenic peptide substrate); selectivity ratio vs cathepsin S
Format: biochemical
Settings: ratio of cathepsin K inhibition constant to cathepsin S inhibition constant; Table II
property: Selectivity for Cat. S over Cat. K

O=C(Cc1c[nH]c2ccccc12)NC(CC1CCCCC1)C(=O)NCCNc1ccc(F)cc1 (stereo not shown) = ++ (++, >100)
CS(=O)(=O)c1cccc(C(=O)N[C@@H](CC2CCCCC2)C(=O)NCCNc2ccc(F)cc2)c1 = +++ (+++, >1000)
COc1ccc(NCCNC(=O)[C@H](CCC2CCCCC2)NC(=O)c2cccc(C(F)(F)F)c2)cc1 = +++ (+++, >1000)
COc1ccc(NCCNC(=O)[C@H](Cc2ccc(-c3ccc(CO)cc3)cc2)NC(=O)c2cccc(C)c2)cc1 = ++ (++, >100)
COc1ccc(NCCNC(=O)[C@H](Cc2ccccc2)NC(=O)Nc2c(C)cccc2C(C)(C)C)cc1 = ++ (++, >100)

// recorded Selectivity for Cat. S over Cat. K for `CC(C)Oc1ccc(C(=O)N[C@@H](CC2CCCCC2)C(=O)NCCNc2ccc(OC(F)(F)F)cc2)cc1` : + (+, >10)

// recorded Selectivity for Cat. S over Cat. K for `COc1ccc(NCCNC(=O)[C@H](CC2CCCCC2)NC(=O)c2ccc(OC)cc2)cc1` : + (+, >10)
